- Experimental System: Sulfonylurea receptor 2, Kir6.2 (Homo sapiens, UniProt O60706+Q14654)
- Sequence (Q14654 whole entry): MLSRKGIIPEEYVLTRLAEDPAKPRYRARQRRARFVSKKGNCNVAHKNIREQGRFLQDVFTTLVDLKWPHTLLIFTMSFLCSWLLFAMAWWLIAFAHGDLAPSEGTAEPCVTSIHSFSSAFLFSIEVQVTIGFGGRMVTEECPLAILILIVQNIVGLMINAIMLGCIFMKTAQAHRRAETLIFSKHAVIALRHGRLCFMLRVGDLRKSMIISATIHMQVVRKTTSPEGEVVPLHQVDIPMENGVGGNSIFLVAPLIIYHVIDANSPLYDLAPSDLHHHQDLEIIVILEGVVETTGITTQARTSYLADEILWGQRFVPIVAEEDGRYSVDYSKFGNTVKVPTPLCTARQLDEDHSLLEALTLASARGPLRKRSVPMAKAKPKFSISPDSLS
- Sequence (O60706 whole entry): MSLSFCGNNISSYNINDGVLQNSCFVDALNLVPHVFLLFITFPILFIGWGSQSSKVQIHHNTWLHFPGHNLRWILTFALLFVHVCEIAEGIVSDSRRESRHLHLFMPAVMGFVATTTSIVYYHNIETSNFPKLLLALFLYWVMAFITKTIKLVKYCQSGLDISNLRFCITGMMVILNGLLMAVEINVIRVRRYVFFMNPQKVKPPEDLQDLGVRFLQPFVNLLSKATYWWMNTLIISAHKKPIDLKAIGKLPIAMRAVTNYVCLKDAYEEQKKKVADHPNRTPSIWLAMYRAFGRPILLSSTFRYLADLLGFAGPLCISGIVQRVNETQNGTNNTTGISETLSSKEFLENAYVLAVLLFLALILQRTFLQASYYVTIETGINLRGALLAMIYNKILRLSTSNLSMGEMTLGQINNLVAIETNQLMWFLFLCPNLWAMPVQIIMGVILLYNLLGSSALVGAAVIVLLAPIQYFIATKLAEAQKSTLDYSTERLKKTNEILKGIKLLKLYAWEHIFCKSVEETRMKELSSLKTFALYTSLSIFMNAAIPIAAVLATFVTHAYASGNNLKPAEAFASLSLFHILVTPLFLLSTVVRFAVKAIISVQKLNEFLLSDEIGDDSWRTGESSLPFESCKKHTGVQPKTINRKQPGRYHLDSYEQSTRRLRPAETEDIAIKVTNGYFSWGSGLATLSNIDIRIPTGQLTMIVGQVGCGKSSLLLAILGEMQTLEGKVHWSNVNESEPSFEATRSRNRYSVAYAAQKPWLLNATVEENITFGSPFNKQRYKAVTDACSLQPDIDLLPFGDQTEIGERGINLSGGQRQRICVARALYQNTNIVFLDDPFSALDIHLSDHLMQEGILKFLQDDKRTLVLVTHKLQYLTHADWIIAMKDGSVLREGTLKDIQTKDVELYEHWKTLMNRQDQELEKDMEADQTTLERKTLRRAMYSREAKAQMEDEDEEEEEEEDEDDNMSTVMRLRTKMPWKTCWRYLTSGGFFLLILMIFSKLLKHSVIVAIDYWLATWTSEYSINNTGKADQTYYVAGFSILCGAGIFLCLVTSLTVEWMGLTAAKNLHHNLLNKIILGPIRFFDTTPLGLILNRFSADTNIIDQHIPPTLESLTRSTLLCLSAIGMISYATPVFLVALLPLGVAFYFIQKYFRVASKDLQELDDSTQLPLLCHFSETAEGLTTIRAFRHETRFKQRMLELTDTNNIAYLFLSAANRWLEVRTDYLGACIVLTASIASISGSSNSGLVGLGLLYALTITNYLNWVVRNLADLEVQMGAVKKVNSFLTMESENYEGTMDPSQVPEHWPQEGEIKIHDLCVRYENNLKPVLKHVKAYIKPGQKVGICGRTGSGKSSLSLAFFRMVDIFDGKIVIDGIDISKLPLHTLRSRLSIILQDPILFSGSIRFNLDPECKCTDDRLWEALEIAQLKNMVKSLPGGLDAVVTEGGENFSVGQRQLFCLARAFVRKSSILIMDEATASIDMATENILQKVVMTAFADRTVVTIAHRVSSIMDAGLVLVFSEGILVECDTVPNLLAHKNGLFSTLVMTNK
- Test Details: Ability to open human urinary bladder Kir6.2 channel containing SUR2B in Ltk cells by FLIPR assay
- Type: functional, cell-based
pEC50: −log10 of the molar value.

>  <Molecule>
C[C@@H]1OCC2=C(C1=O)[C@H](c1ccc(F)c(Br)c1)C1=C(O)OCC1=N2 (stereo in doubt; 8b)

>  <Inequality Sign>
=

>  <pEC50>
6.53

$$$$
>  <Molecule>
CC[C@H]1OCC(O)=C2C1=NC1=C(C(=O)COC1)[C@H]2c1ccc(F)c(Cl)c1 (stereo in doubt; 72a)

>  <Inequality Sign>
=

>  <pEC50>
5.44

$$$$
>  <Molecule>
O=C1COCC2=C1C(c1ccc(F)c(Br)c1)C1=C(O)C3(CCCC3)OCC1=N2 (stereo not drawn)

>  <Inequality Sign>
<

>  <pEC50>
5.00

$$$$
>  <Molecule>
CCC[C@H]1OC(O)=C2C1=NC1=C(C(=O)COC1)[C@H]2c1ccc(Br)c(Br)c1 (racemic)

>  <Inequality Sign>
=

>  <pEC50>
6.48

$$$$
>  <Molecule>
CC[C@H]1OCC(O)=C2C1=NC1=C(C(=O)COC1)[C@H]2c1ccc(Cl)c(Br)c1 (racemic)

>  <Inequality Sign>
=

>  <pEC50>
5.79

$$$$
>  <Molecule>
CCC[C@H]1OC(O)=C2C1=NC1=C(C(=O)COC1)[C@H]2c1ccc(Cl)c(Br)c1 (stereo in doubt; 43b)

>  <Inequality Sign>
=

>  <pEC50>
6.82

$$$$
>  <Molecule>
CC[C@H]1OCC(O)=C2C1=NC1=C(C(=O)COC1)[C@H]2c1ccc(F)c(I)c1 (stereo in doubt; 73b)

>  <Inequality Sign>
=

>  <pEC50>
5.53

$$$$
>  <Molecule>
C[C@@H]1OC(O)=C2C1=NC1=C(C(=O)COC1)[C@H]2c1ccc(F)c(Br)c1 (stereo in doubt; 17a)

>  <Inequality Sign>
=

>  <pEC50>
9.04

$$$$

====

- Experimental System: Sulfonylurea receptor 2, Kir6.2 (Homo sapiens) (UniProt Q14654+O60706)
- Test Details: Ability to open human urinary bladder Kir6.2 containing SUR2B in Ltk cells by FLIPR assay relative to P1075
- Assay type: functional, cell-based
The reader will find reported Efficacy values listed item by item below.

>  <Compound>
CC[C@@H]1OCC2=C(C1=O)[C@@H](c1ccc(F)c(Br)c1)C1=C(O)OCC1=N2 (stereo in doubt; 10a)

>  <Efficacy, %>
83

$$$$
>  <Compound>
CC[C@H]1OCC(O)=C2C1=NC1=C(C(=O)COC1)[C@H]2c1ccc(Br)c(Br)c1 (stereo in doubt; 77b)

>  <Efficacy, %>
104

$$$$
>  <Compound>
C[C@@H]1OC(O)=C2C1=NC1=C(C(=O)COC1)[C@H]2c1ccc(F)c(Br)c1 (racemic)

>  <Efficacy, %>
100

$$$$
>  <Compound>
CCC[C@@H]1OC(O)=C2C1=NC1=C(C(=O)COC1)[C@H]2c1ccc(F)c(Br)c1 (stereo in doubt; 22a)

>  <Efficacy, %>
82

$$$$
>  <Compound>
CCC[C@@H]1OC(O)=C2C1=NC1=C(C(=O)COC1)[C@H]2c1ccc(F)c(Br)c1 (stereo in doubt; 22b)

>  <Efficacy, %>
66

$$$$
>  <Compound>
CC[C@H]1OC(O)=C2C1=NC1=C(C(=O)OC1)[C@H]2c1ccc(F)c(Br)c1 (relative stereo)

>  <Efficacy, %>
74

$$$$
>  <Compound>
CCC[C@H]1OC(O)=C2C1=NC1=C(C(=O)COC1)[C@H]2c1ccc(Br)c(Cl)c1 (racemic)

>  <Efficacy, %>
97

$$$$
